# assayed_target: T1, recombinant soluble human TREM2 protein (human TREM2 ECD-FlagHis) (human, UniProt Q9NZC2 19-174)
# T1 sequence: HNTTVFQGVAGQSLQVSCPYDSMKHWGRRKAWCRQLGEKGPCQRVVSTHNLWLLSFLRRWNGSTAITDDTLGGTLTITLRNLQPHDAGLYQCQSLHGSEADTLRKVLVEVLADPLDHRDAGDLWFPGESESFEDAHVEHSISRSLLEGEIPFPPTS
# experiment_notes: Octet BLI binning; competitor: load Ab 32E3
# Method: Each of sixteen different anti-TREM2 antibodies produced from hybridomas were quantitated and loaded onto one of the anti-human Fc sensors at 5 μg/mL for 2 minutes (“Load Antibody”). The sensor was then blocked with 100 μg/mL of an irrelevant human IgG2 antibody for 5 minutes. […] Next, each of the sixteen different anti-TREM2 antibodies (“Sandwich Antibody”) was added to the sensor at 5 μg/mL and allowed to bind for 5 minutes. […]
quantity_kind: sandwich binding signal
// print number alone

Provide one value: measured sandwich binding signal of 26C10 (antibody, human IgG2, V domains shown, human IgG2 from hybridoma) VH: EVQLVESGGALVQPGGSLRLSCAASGFTFSSFGMSWVRQAPGKGLEWVSYISSSSFTIYYADSVKGRFTISRDNAKNSFYLQMNSLRDEDTAVYFCVREGGITMVRGVSSYGMDVWGQGTTVTVSS VL: SFELTQPPSVSVSPGQTASITCSGDKLGDKYVCWYQQKPGQSPMLVIYQDTKRPSGIPERFSGSNSGNTATLTISGTQAMDEADYYCQAWDSSTVVFGGGTKLTVL
0.419

The origin of these recorded values is patent US20220204611A1.
